Test: Tmax in NCR nude mouse at 5 mg/kg, po
Assay type: ADME, organism-based
Design: dose 5 mg/kg, route oral
Details: in vivo
property_name: Tmax (min)

| line_notation | val |
| --- | --- |
| Cc1ccc(S(=O)(=O)c2ccc(CNC(=O)N3Cc4ccncc4C3)cc2)cn1 | 15 |

----------
Test: Volume of distribution at steady state in NCR nude mouse at 5 mg/kg, iv
Format: ADME, organism-based
Parameters: dose 5 mg/kg, route intravenous
Conditions: in vivo, read-out: Vdss

| line_notation | Vd [L/kg] |
| --- | --- |
| Cc1ccc(S(=O)(=O)c2ccc(CNC(=O)N3Cc4ccncc4C3)cc2)cn1 | 2.04 |

----------
Overview of reported Papp A→B at 10 µM across a group of molecules:
Test: Apparent permeability across apical to basolateral side in MDCK cells at 10 uM by LC-MS/MS analysis
Type: ADME, cell-based, Canis lupus familiaris
Conditions: dog

| line_notation | unit_of_measure | Papp A→B at 10 µM |
| --- | --- | --- |
| O=C(NCc1ccc(S(=O)(=O)c2ccccc2)cc1)N1Cc2ccncc2C1 | ×10⁻⁶ cm/s | 8.3 |
| Nc1ccc(S(=O)(=O)c2ccc(CNC(=O)N3Cc4ccncc4C3)cc2)cn1 | ×10⁻⁶ cm/s | 0.5 |
| O=C(NCc1ccc(S(=O)(=O)C2CCN(C3CCOCC3)CC2)cc1)N1Cc2ccncc2C1 | ×10⁻⁶ cm/s | 0.1 |
| O=C(NCc1ccc(S(=O)(=O)C2CCN(C3COC3)CC2)cc1)N1Cc2ccncc2C1 | ×10⁻⁶ cm/s | 0.1 |
| Cc1ccc(S(=O)(=O)c2ccc(CNC(=O)N3Cc4ccncc4C3)cc2)cn1 | ×10⁻⁶ cm/s | 2.5 |
| CC(C)n1cc(S(=O)(=O)c2ccc(CNC(=O)N3Cc4ccncc4C3)cc2)cn1 | ×10⁻⁶ cm/s | 4.1 |
